Test: Half life in monkey at 2 mg/kg, iv
Type: ADME, organism-based, Macaca mulatta
Set-up: dose 2 mg/kg, route intravenous
Settings: rhesus monkey, in vivo

compoundSmiles | half-life (h)
CC(C)(C(=O)O)c1ccc(-c2ccccc2)c(F)c1 | 8

---

Test system: Mus musculus
Experiment: Drug level in mouse plasma at 50 mg/kg, po
Format: ADME, organism-based
Design: dose 50 mg/kg, route oral
Conditions: in vivo, read-out: Drug uptake

molecule | concentration [µM]
CC(C)(C(=O)O)c1ccc(-c2ccccc2)c(F)c1 | 849
COc1ccc2c(c1)c(CC(=O)O)c(C)n2C(=O)c1ccc(Cl)cc1 [INDOMETHACIN] | 266
Cc1cccc(Nc2ccccc2C(=O)O)c1C [MEFENAMIC ACID] | 87
C[C@@H](C(=O)O)c1ccc(-c2ccccc2)c(F)c1 [TARENFLURBIL] | 1190
CC(C)Cc1ccc(C(C)C(=O)O)cc1 (stereo not given) [IBUPROFEN] | 592
